The measured values listed here are drawn from ChEMBL document CHEMBL4673391.

Please go through the items and note down their pEC50.
- subject_of_test: Melanocyte-stimulating hormone receptor (Mus musculus, UniProt Q01727)
- Sequence (Q01727 whole entry): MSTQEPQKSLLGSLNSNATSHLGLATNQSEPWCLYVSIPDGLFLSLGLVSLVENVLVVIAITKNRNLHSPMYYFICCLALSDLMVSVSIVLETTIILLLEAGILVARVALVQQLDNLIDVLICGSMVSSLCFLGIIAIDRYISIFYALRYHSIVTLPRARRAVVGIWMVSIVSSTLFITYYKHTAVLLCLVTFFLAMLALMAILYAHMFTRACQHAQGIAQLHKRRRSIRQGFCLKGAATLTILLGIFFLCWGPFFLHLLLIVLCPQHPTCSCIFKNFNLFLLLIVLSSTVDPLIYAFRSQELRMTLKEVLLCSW
- protocol_description: Agonist activity at mouse melanocortin receptor 1 expressed in HEK293 cells assessed as stimulation of cAMP accumulation incubated for 2 hrs by cAMP Alpha-screen assay
# pEC50: negative log10 of molar concentration; output just the value

Challenge: // fetch pEC50 given entry CC(=O)N[C@@H](CCCNC(=N)N)C(=O)N[C@@H](CCC(N)=O)C(=O)N[C@H](Cc1ccc(-c2ccccc2)cc1)C(=O)N1Cc2ccccc2C[C@H]1C(N)=O
Response given: 7.22

Challenge: Consider the compound CC(=O)N[C@@H](CCCNC(=N)N)C(=O)N[C@@H](CCCNC(=N)N)C(=O)N[C@H](Cc1ccc(-c2ccccc2)cc1)C(=O)N1Cc2ccccc2C[C@H]1C(N)=O . State its measured pEC50.
Response given: 9.64

Challenge: State its pEC50: CC(=O)N[C@@H](Cc1c[nH]cn1)C(=O)N[C@@H](CCCNC(=N)N)C(=O)N[C@H](Cc1ccc(-c2ccccc2)cc1)C(=O)N1Cc2ccccc2C[C@@H]1C(N)=O
Response given: 9.05

* * *

- subject_of_test: Melanocortin receptor 5 (Mus musculus)
- Sequence (P41149 whole entry): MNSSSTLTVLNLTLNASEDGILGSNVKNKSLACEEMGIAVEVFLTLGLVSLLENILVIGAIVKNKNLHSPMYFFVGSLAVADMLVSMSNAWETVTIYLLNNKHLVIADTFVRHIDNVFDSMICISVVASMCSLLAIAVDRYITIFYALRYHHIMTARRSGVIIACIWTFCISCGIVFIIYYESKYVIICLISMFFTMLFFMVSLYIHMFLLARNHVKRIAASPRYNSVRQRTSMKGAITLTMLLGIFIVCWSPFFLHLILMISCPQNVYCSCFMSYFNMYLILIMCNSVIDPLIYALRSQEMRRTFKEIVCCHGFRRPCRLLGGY
- protocol_description: Agonist activity at mouse melanocortin receptor 5 expressed in HEK293 cells assessed as stimulation of cAMP accumulation incubated for 2 hrs by cAMP Alpha-screen assay
pEC50: −log10 of the molar value.
Assign Yes to entries whose pEC50 meets or exceeds 8; assign No to the rest.

Challenge: Test whether the molecule CC(=O)N[C@H](C(=O)N[C@@H](CCCNC(=N)N)C(=O)N[C@H](Cc1ccc(-c2ccccc2)cc1)C(=O)N1Cc2ccccc2C[C@H]1C(N)=O)C(C)C records pEC50 of 8 or higher.
Response given: No

Challenge: Quick check: does CC(=O)N[C@H](C(=O)N[C@@H](CCC(N)=O)C(=O)N[C@H](Cc1ccc(-c2ccccc2)cc1)C(=O)N1Cc2ccccc2C[C@H]1C(N)=O)C(C)C have pEC50 greater than or equal to 8?
Response given: No

Challenge: Kindly determine if pEC50 recorded for CC(=O)N[C@H](C(=O)N[C@@H](CCC(N)=O)C(=O)N[C@H](Cc1ccc(-c2ccccc2)cc1)C(=O)N1Cc2ccccc2C[C@@H]1C(N)=O)C(C)C is above or exactly 8.
Response given: No

Challenge: Check if pEC50 >= 8 (inclusive). Item: CC(=O)N[C@@H](Cc1c[nH]cn1)C(=O)N[C@@H](CCC(N)=O)C(=O)N[C@H](Cc1ccc(-c2ccccc2)cc1)C(=O)N1Cc2ccccc2C[C@@H]1C(N)=O
Response given: No

Challenge: Hi team, for CC(=O)N[C@@H](CCCNC(=N)N)C(=O)N[C@@H](CCC(N)=O)C(=O)N[C@H](Cc1ccc(-c2ccccc2)cc1)C(=O)N1Cc2ccccc2C[C@@H]1C(N)=O , is the recorded pEC50 at or above 8?
Response given: Yes

* * *

- subject_of_test: UniProtKB P33033
- Sequence (P33033 whole entry): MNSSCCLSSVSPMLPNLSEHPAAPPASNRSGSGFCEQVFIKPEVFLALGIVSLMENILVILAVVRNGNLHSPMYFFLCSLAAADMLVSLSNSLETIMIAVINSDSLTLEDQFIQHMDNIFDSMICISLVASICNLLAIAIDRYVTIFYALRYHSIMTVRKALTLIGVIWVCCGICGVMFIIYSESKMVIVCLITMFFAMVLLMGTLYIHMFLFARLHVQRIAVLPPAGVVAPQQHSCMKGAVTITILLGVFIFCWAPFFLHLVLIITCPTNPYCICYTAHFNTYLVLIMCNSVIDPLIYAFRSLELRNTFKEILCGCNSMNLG
- protocol_description: Agonist activity at mouse melanocortin receptor 3 expressed in HEK293 cells assessed as stimulation of cAMP accumulation incubated for 2 hrs by cAMP Alpha-screen assay
Hi there, I'd appreciate the recorded pEC50 for every entry that follows.
Worth noting: pEC50 values are minus log10 of concentrations stated in mol/L.

Challenge: Indicate its recorded pEC50; the compound in question is CC(=O)N[C@@H](Cc1c[nH]cn1)C(=O)N[C@@H](CCCNC(=N)N)C(=O)N[C@H](Cc1ccc(-c2ccccc2)cc1)C(=O)N1Cc2ccccc2C[C@@H]1C(N)=O
Response given: 7.41

Challenge: Report pEC50 for CC(=O)N[C@@H](CCCNC(=N)N)C(=O)N[C@@H](CCC(N)=O)C(=O)N[C@H](Cc1ccc(-c2ccccc2)cc1)C(=O)N1Cc2ccccc2C[C@H]1C(N)=O
Response given: 7.18

Challenge: Answer with the recorded pEC50 of CC(=O)N[C@@H](Cc1c[nH]cn1)C(=O)N[C@@H](CCC(N)=O)C(=O)N[C@H](Cc1ccc(-c2ccccc2)cc1)C(=O)N1Cc2ccccc2C[C@@H]1C(N)=O only.
Response given: 6.96
